Quick reference: log10(IC50) of the listed items.
Molecular target: human Keap1 kelch domain (amino acids Ala321-Thr609) (Homo sapiens)
Construct: human Keap1 kelch domain (amino acids Ala321-Thr609)
Sequence (Q14145 321-609): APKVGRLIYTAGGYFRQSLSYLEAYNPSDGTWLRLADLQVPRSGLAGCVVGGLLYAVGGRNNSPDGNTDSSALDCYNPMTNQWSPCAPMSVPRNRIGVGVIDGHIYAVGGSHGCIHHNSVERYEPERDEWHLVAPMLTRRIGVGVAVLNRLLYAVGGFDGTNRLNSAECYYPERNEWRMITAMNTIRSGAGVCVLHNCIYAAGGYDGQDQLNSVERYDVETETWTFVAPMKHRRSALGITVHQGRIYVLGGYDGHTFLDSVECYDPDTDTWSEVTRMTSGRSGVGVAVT
Experiment: Keap1-Nrf2 peptide binding assay (fluorescence polarisation)
Conditions: binding of Keap1 kelch domain (20 nM) to fluorescently labeled Nrf2 peptide (50 nM); read-out: IC50
Method: A fluorescence polarisation assay was used to measure binding of the human Keap1 kelch domain (amino acids Ala321-Thr609) to a fluorescently labeled peptide containing a Keap1 binding site of human Nrf2 (Alexa633-AFFAQLQLDEETGEFL; JPT Technologies, Berlin, Germany). […] Fluorescence polarization (FP) was measured at excitation and emission wavelengths of 635 nm and 660 nm, respectively. […]
All values: base-10 log of IC50 in nM.

Example entries begin here.
smiles text | measured value
O=C(O)c1cccc(-c2ccc(NS(=O)(=O)c3c(F)cccc3F)c3ccccc23)c1 | 3.81
Cc1nc(-c2ccccc2)sc1S(=O)(=O)Nc1ccc(-c2cccc(C(=O)O)c2)c2ccccc12 | 3.45
Cc1cc(NC(=O)N2CCOCC2)ccc1S(=O)(=O)Nc1ccc(-c2cccc(C(=O)O)c2)c2ccccc12 | 3.40
O=C(O)c1ccc(F)c(-c2ccc(NS(=O)(=O)c3cc(Cl)sc3Cl)c3ccccc23)c1 | 2.95
Cn1cc(S(=O)(=O)Nc2ccc(-c3cc(C(=O)O)ccc3F)c3ccccc23)c(C(F)(F)F)n1 | 3.99
Cc1nn(CC(C)C)cc1S(=O)(=O)Nc1ccc(-c2cccc(C(=O)O)c2)c2ccccc12 | 3.65

Please state recorded log10(IC50) (tested on human Keap1 kelch domain (amino acids Ala321-Thr609) (Homo sapiens)) of `COc1ccc(S(=O)(=O)Nc2ccc(-c3cccc(C(=O)O)c3)c3ccccc23)c(OC)c1`
3.65

Another: `Cc1nn(C)c(Cl)c1S(=O)(=O)Nc1ccc(-c2cc(C(=O)O)ccc2F)c2ccccc12`
2.48

Another: `Cc1c(S(=O)(=O)Nc2ccc(-c3cc(C(=O)O)ccc3F)c3ccccc23)cnn1CC(C)C`
3.23

Another: `Cc1c(S(=O)(=O)Nc2ccc(-c3cc(C(=O)O)ccc3F)c3ccccc23)cnn1-c1ccccc1`
3.57

Another: `Cc1ccc2sc(S(=O)(=O)Nc3ccc(-c4cccc(C(=O)O)c4)c4ccccc34)cc2c1`
3.48

====

Biological target: human Keap1 kelch domain (amino acids Ala321-Thr609) (Homo sapiens)
Construct: human Keap1 kelch domain (amino acids Ala321-Thr609)
Test: Keap1-Nrf2 peptide binding assay (fluorescence polarisation)
Details: binding of Keap1 kelch domain (20 nM) to fluorescently labeled Nrf2 peptide (50 nM)
Quick reference: pIC50 of the listed items.
Please keep in mind that pIC50 is minus log10 of the molar concentration; only the number is needed.

Example entries begin here.
compound | pIC50
O=C(O)c1cccc(-c2ccc(NS(=O)(=O)c3ccc(F)cc3Cl)c3ccccc23)c1 [Example 35] | 5.25
Cc1cc(Cl)c(C)c(S(=O)(=O)Nc2ccc(-c3cccc(C(=O)O)c3)c3ccccc23)c1Cl [Example 57] | 6.22
O=C(O)c1cccc(-c2ccc(NS(=O)(=O)c3ccc(Cl)cc3Cl)c3ccccc23)c1 [Example 15] | 6.00

# pIC50 lookup, item Cc1c(Cl)cccc1S(=O)(=O)Nc1ccc(-c2cccc(C(=O)O)c2)c2ccccc12 [Example 13]
5.96

Another: Cc1ccc(C#N)c(S(=O)(=O)Nc2ccc(-c3cccc(C(=O)O)c3)c3ccccc23)c1 [Example 53]
5.17

Another: O=C(O)c1cccc(-c2ccc(NS(=O)(=O)c3ccc(Cl)c(C(F)(F)F)c3)c3ccccc23)c1 [Example 37]
5.40

Another: O=C(O)c1cccc(-c2ccc(NS(=O)(=O)c3cc(Cl)c(F)cc3F)c3ccccc23)c1 [Example 40]
5.36

Another: Cc1ccc(Cl)cc1S(=O)(=O)Nc1ccc(-c2cccc(C(=O)O)c2)c2ccccc12 [Example 41]
5.85
